src = paper PMC4999211

tested.on: T1, mutant S100A4 (C3S, C76S, C81S, C86S) (human, UniProt P26447 1-101, C3S | C76S | C81S | C86S)
T1 construct: human S100A4 with all four cysteines mutated to serines; residue numbers 1-101 in the HSQC bar graph; 15N-labelled where it was the observed protein in HSQC; No tag is named; also called mS100A4; quadruple mutant S100A4; source: E. coli BL21 (DE3), pET21b, purified (ammonium sulfate, Hi-Prep Q XL, Hi-Prep Phenyl FF, Superdex 75)
test.description: other fluorescence titration; intrinsic tryptophan fluorescence of EGF (8 uM), excitation 295 nm, emission at 345 nm; mS100A4 added at 0-22 uM; double-reciprocal plot, one-site binding model
assay.conditions: both partners purified

>  <binder>
human epidermal growth factor (ligand, UniProt P01133 971-1023, looked up, human epidermal growth factor, the mature hormone cut from pro-EGF; three disulfide bonds; 15N-labelled where it was the observed protein in HSQC; also called EGF; recombinant EGF) NSDSECPLSHDGYCLHDGVCMYIEALDKYACNCVVGYIGERCQYRDLKWWELR

>  <Kd (µM)>
5.2

$$$$
